study.system: CRTH2 (Homo sapiens, UniProt Q9Y5Y4)
Sequence (Q9Y5Y4 whole entry): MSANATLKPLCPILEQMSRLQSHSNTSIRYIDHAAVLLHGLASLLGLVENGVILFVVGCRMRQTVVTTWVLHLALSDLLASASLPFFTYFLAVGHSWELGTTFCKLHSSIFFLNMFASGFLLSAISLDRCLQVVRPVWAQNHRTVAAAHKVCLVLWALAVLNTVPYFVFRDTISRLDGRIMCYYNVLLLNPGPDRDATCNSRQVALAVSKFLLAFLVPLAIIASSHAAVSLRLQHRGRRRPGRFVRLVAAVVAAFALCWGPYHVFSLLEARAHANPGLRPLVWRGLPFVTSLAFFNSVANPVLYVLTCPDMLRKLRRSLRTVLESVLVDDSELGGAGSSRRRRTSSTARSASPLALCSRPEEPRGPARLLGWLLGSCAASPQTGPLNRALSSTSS
experiment.notes: FRET based competitive immunoassay (cAMP) in CRTH2 expressing CHO cells
test.conditions: CRTH2 expressing CHO cells incubated with forskolin and PGD2; Eu3+ cryptate-labeled anti-cAMP and d2-labeled cAMP
Could you please report measured IC50 for the items listed next?
Response body: numeric value in nM, unit text excluded.

Query `Cc1c(-c2nn(-c3cccc(C(F)(F)F)c3)c(=O)c3ccccc23)c2cc(F)ccc2n1CC(=O)O` on CRTH2 (Homo sapiens, UniProt Q9Y5Y4); IC50 returned: 588

Query `Cc1c(-c2nn(CCC(C(F)(F)F)C(F)(F)F)c(=O)c3ccccc23)c2cc(F)ccc2n1CC(=O)O` on CRTH2 (Homo sapiens, UniProt Q9Y5Y4); IC50 returned: 21

Query `Cc1c(-c2ccc(=O)n(Cc3ccc(Cl)cc3)n2)c2cc(Cl)ccc2n1CC(=O)O` on CRTH2 (Homo sapiens, UniProt Q9Y5Y4); IC50 returned: 21

Query `Cc1c(-c2cn(Cc3ccccn3)c(=O)c3ccccc23)c2cc(F)ccc2n1CC(=O)O` on CRTH2 (Homo sapiens, UniProt Q9Y5Y4); IC50 returned: 9

Query `Cc1c(Cc2ccc(=O)n(Cc3ccccc3F)n2)c2cc(F)ccc2n1CC(=O)O` on CRTH2 (Homo sapiens, UniProt Q9Y5Y4); IC50 returned: 3

FYI, the data here is from patent US20110105509A1.
